assay: gradient 5% acetonitrile 3 min, to 50% in 2 min, to 85% in 15 min, held 3 min, 100 µL/min; details: column: Zorbax Extend-C18 2.1 x 50 mm; eluents: water / acetonitrile, 0.1% formic acid
// map RP-LC retention time to label using low group (below 700 s), middle group (700 s to below 900 s), high group (900 s or more)

compound=COCc1cc(=O)n(CC(=O)Nc2ccc(Cl)cc2)c(N)n1 class_name="low group"
compound=CCc1ccc(-c2noc(Cn3c(=O)n(-c4ccc(C)cc4)c(=O)c4sccc43)n2)cc1 class_name="high group"
compound=CCn1cc(-c2nc(C(=O)Nc3ccc(C)cc3)cs2)c2cccnc21 class_name="high group"
compound=CCc1ccccc1NC(=O)Cn1nc2cc(C)nc(Nc3ccccc3)n2c1=O class_name="high group"
compound=Cc1ccc(-c2nc3cnccn3c2Nc2ccc(C(=O)NCc3ccco3)cc2)cc1 class_name="middle group"
compound=COc1nn(C)cc1C(=O)NCC1(c2ccc(F)cc2)CC1 class_name="middle group"
compound="COc1cccc(NC(=O)C2c3cc(OC)c(OC)cc3C(=O)N3CCc4ccccc4C23)c1 (stereo not given)" class_name="middle group"
compound=O=C(Cn1nc2nc(N3CCCC3)ccn2c1=O)NCc1ccc(F)c(Cl)c1 class_name="low group"
compound=COc1ccc(-c2nn(-c3ccccc3)cc2C(=O)O)cc1N class_name="low group"
compound=CCOC(=O)C(=O)NCc1ccccc1Cl class_name="middle group"
compound=COC(=O)c1cccc(C(=O)N2CCc3ccccc32)n1 class_name="middle group"
compound=O=C(Nc1ccc(S(=O)(=O)N2CCCCC2)cc1)c1cc(-c2ccccc2)on1 class_name="low group"
compound=CNC(=O)c1cccc(C(=O)N(C)c2ccccc2)n1 class_name="low group"
compound=O=C(Nc1ccc2sccc2c1)c1coc2ccccc2c1=O class_name="high group"
compound="CC(=O)N1CCc2cc(N3CC(C(=O)NC4CCCCCC4)CC3=O)ccc21 (stereo not given)" class_name="middle group"
compound=Cc1cc(Cl)ccc1S(=O)(=O)N1CCC2(CC1)NCCCN=C2NC1CCCC1 class_name="middle group"
compound=CCOC(=O)c1nc(NCCN(C)Cc2ccccc2)c2c(C)noc2n1 class_name="low group"
compound=CN(C)CCNC(=O)Cn1ncn2nc(-c3ccccc3)cc2c1=O class_name="low group"
compound=CC1(C(=O)NCc2ccc(F)cc2)CCN(C(=O)Nc2ccccc2Br)CC1 class_name="middle group"
compound=COc1ccc(-c2csc(NCCc3ccc(OC)c(OC)c3)n2)cc1 class_name="middle group"
compound=O=C(c1ccc2c(c1)OCO2)N1CCCN(c2nnc3ccc(Cl)cn23)CC1 class_name="low group"
compound=O=C(NCCn1ncccc1=O)Nc1ccccc1C(F)(F)F class_name="low group"
compound=Cc1ccc(Nc2c(-c3ccc(N(C)C)cc3)nc3cnccn23)c(C)c1 class_name="high group"
compound=O=C(c1ccc(=O)[nH]c1)N1CC(c2nc(-c3ccccn3)no2)C1 class_name="low group"
compound="CC(NC(=O)c1ccsc1)C(=O)Nc1nc2ccccc2[nH]1 (stereo not given)" class_name="low group"
compound=Cc1ccccc1Nc1c(-c2cc(Br)ccc2F)nc2ccc(Br)cn12 class_name="high group"
compound="CCOc1ccc(CC(=O)N2CCCC2c2nc(-c3ccccc3)no2)cc1OCC (stereo not given)" class_name="high group"
compound=Cc1ccc(Nc2nc(C)cc(N3CCN(S(=O)(=O)c4ccc(F)c(F)c4)CC3)n2)cc1 class_name="middle group"
compound=COc1cccc(NC(=O)c2cc(C)n3nc(C)cc3n2)c1 class_name="high group"
compound=CCCC(=O)Nc1nnc(SCc2ccc(Br)cc2)s1 class_name="high group"
compound="CCn1cnc(S(=O)(=O)N2CCCC(C(=O)Nc3ccc(C)cc3Cl)C2)c1 (stereo not given)" class_name="middle group"
compound="COc1cccc(CN2CCC(N3CC4(CCCCC4)C3c3ccccc3)CC2)c1OC (stereo not given)" class_name="low group"
compound=O=C(Nc1cc(F)cc(F)c1)Nc1cccc(-c2ccc(N3CCOCC3)nn2)c1 class_name="middle group"
